System: amyloid precursor protein (APP) proteolysis
Assay: Repressor Release Assay (RRA)
Assay type: cell-based
Conditions: Conc 1 μg/mL; luciferase activity over diluent control
ENDPOINT: APPI Fold Increase (fold)
Supply the numeric figure in fold, leaving out any unit text.

Exercise: Missing value: APPI Fold Increase, amyloid precursor protein (APP) proteolysis, entry `CC[C@@H](C)[C@@H](CO)NS(=O)(=O)c1ccc(Br)s1` . Fill in?
Solution: 2.38

Exercise: Missing value: APPI Fold Increase, amyloid precursor protein (APP) proteolysis, entry `CC[C@H](C)[C@@H](CO)NS(=O)(=O)c1ccc(Cl)s1` . Fill in?
Solution: 2.22

Exercise: Missing value: APPI Fold Increase, amyloid precursor protein (APP) proteolysis, entry CC(C)CC(CO)NS(=O)(=O)c1ccc(Br)s1 (stereo not drawn) . Fill in?
Solution: 1.57

Exercise: Missing value: APPI Fold Increase, amyloid precursor protein (APP) proteolysis, entry C=CCC(O)C(NS(=O)(=O)c1ccc(Cl)s1)C(C)CC (mixture of isomers) . Fill in?
Solution: 1.52

Exercise: Missing value: APPI Fold Increase, amyloid precursor protein (APP) proteolysis, entry `CC[C@H](C)[C@@H](CO)NS(=O)(=O)c1cc(Cl)sc1Cl` . Fill in?
Solution: 0.9

Exercise: Missing value: APPI Fold Increase, amyloid precursor protein (APP) proteolysis, entry O=S(=O)(NC(CO)C1CCCCC1)c1ccc(Br)s1 (stereo not drawn) . Fill in?
Solution: 2.17
